Provenance of the data: PubChem BioAssay AID1963840

Test system: 695427-040-R-J1-PDC complex spheroid viability
Assay: Anticancer human tumor 695427-040-R-J1-PDC patient-derived colon adenocarcinoma cell line growth inhibition [POLQ]
Details: second compound 0.1 µM; first compound 1 µM; active compounds read low
Assay metric: viability, T/C

>>> result("C=CC(=O)N1CCN(c2nc(=O)n(-c3c(C)ccnc3C(C)C)c3nc(-c4c(O)cccc4F)c(F)cc23)C(C)C1 (stereo not drawn) + COC1C(OC(N)=O)C(O)C(Oc2ccc3c(O)c(NC(=O)c4ccc(O)c(CC=C(C)C)c4)c(=O)oc3c2C)OC1(C)C")
"111%"
>>> result("C=CC(=O)N1CCN(c2nc(=O)n(-c3c(C)ccnc3C(C)C)c3nc(-c4c(O)cccc4F)c(F)cc23)C(C)C1 (stereo not drawn) + Cc1cccc(N(C)C(=O)C2C(O)CCN2c2nc(C)cc(C(F)(F)F)c2C#N)c1")
"108%"
>>> result("O=c1[nH]cc(F)c(=O)[nH]1 + Nc1ccc(C#CCN(C(=O)Cc2ncc(C(F)(F)F)cc2C(F)(F)F)c2ccc(F)cc2)nn1")
"106%"

----------
viability, T/C overview
Tested on: 695427-040-R-J1-PDC complex spheroid viability
Experiment: Anticancer human tumor 695427-040-R-J1-PDC cell line growth inhibition [POLQ];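 note: spheroids exposed to compounds for seven days; 100% = DMSO vehicle control viability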
Details: second compound 0.316 µM; first compound 0.316 µM; active compounds read low
Assay metric: viability, T/C (%)

>>> readout_number("C#Cc1c(F)ccc2cc(O)cc(-c3ncc4c(N5CC6CCC(C5)N6)nc(OCC56CCCN5CC(F)C6)nc4c3F)c12 (stereo not drawn) + COC1C(OC(N)=O)C(O)C(Oc2ccc3c(O)c(NC(=O)c4ccc(O)c(CC=C(C)C)c4)c(=O)oc3c2C)OC1(C)C")
98.2
>>> readout_number("COc1cccc2c1C(=O)c1c(O)c3c(c(O)c1C2=O)CC(O)(C(=O)CO)CC3OC1CC(N)C(O)C(C)O1 (stereo not drawn) + Nc1ccc(C#CCN(C(=O)Cc2ncc(C(F)(F)F)cc2C(F)(F)F)c2ccc(F)cc2)nn1")
94.4
>>> readout_number("CCc1c2c(nc3ccc(O)cc13)-c1cc3c(c(=O)n1C2)COC(=O)[C@]3(O)CC + Nc1ccc(C#CCN(C(=O)Cc2ncc(C(F)(F)F)cc2C(F)(F)F)c2ccc(F)cc2)nn1")
85.8

----------
Tested on: 695427-040-R-J1-PDC complex spheroid viability
Test: Anticancer human tumor 695427-040-R-J1-PDC cell line growth inhibition [POLQ];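 note: spheroids exposed to compounds for seven days; 100% = DMSO vehicle control viability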
Settings: second compound 3.16 µM; first compound 0.0316 µM; active compounds read low
viability, T/C overview
Assay metric: viability, T/C (%)

>>> readout_number("C=CC(=O)N1CCN(c2nc(=O)n(-c3c(C)ccnc3C(C)C)c3nc(-c4c(O)cccc4F)c(F)cc23)C(C)C1 (stereo not given) + Nc1ccc(C#CCN(C(=O)Cc2ncc(C(F)(F)F)cc2C(F)(F)F)c2ccc(F)cc2)nn1")
105
>>> readout_number("CCc1c2c(nc3ccc(O)cc13)-c1cc3c(c(=O)n1C2)COC(=O)[C@]3(O)CC + Cc1cccc(N(C)C(=O)C2C(O)CCN2c2nc(C)cc(C(F)(F)F)c2C#N)c1")
82.2
>>> readout_number("C#Cc1c(F)ccc2cc(O)cc(-c3ncc4c(N5CC6CCC(C5)N6)nc(OCC56CCCN5CC(F)C6)nc4c3F)c12 (stereo not given) + Cc1cccc(N(C)C(=O)C2C(O)CCN2c2nc(C)cc(C(F)(F)F)c2C#N)c1")
88.5
>>> readout_number("O=C(c1cc(Cc2n[nH]c(=O)c3ccccc23)ccc1F)N1CCN(C(=O)C2CC2)CC1 + Cc1cccc(N(C)C(=O)C2C(O)CCN2c2nc(C)cc(C(F)(F)F)c2C#N)c1")
103
>>> readout_number("CC1COCCN1c1cc(C2(O)CC3CCC(C2)O3)c2cnn(-c3ccn[nH]3)c2n1 (stereo not given) + COC1C(OC(N)=O)C(O)C(Oc2ccc3c(O)c(NC(=O)c4ccc(O)c(CC=C(C)C)c4)c(=O)oc3c2C)OC1(C)C")
102
